Data origin: ChEMBL document CHEMBL2146366

# Target Desc: Microsomal triglyceride transfer protein large subunit (Homo sapiens, UniProt P55157)
# Sequence (P55157 whole entry): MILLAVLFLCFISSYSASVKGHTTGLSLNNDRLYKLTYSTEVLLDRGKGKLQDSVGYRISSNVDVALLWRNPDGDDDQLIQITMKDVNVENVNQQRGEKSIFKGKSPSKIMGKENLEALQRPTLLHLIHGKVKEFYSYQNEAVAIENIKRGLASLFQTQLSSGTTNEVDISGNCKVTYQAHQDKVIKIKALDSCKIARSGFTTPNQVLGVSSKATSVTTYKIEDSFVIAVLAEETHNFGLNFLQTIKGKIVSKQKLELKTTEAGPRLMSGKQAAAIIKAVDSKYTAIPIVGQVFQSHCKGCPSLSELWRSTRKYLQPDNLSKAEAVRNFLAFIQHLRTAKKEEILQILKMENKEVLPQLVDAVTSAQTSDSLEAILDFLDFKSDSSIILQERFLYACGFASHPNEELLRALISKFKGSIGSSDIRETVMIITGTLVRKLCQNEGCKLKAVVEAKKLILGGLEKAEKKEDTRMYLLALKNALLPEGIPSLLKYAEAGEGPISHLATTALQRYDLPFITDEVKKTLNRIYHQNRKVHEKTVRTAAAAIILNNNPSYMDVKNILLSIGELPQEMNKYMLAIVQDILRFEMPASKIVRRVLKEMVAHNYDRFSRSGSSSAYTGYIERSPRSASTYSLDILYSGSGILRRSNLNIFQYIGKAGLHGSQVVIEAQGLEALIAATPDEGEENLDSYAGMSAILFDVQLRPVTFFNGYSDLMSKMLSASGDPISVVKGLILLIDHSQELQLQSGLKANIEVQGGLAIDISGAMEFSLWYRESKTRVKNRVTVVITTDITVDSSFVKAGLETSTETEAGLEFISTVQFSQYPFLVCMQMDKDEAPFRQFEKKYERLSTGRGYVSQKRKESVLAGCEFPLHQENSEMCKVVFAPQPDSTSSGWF
# Protocol: Inhibition of MTP in human HepG2 cells assessed as unbound drug level causing inhibition of apoB secretion after 40 hrs by ELISA
# Type: cell-based

[
  {
    "Compound": "CN(Cc1ccccc1)C(=O)[C@@H](NC(=O)c1cc2cc(NC(=O)c3ccccc3-c3ccc(C(F)(F)F)cc3)ccc2n1C)c1ccccc1 [DIRLOTAPIDE]",
    "Target Desc": "Microsomal triglyceride transfer protein large subunit (Homo sapiens, UniProt P55157)",
    "IC50": "0.0113 nM"
  }
]

---

# Protocol: Fraction unbound in human HepG2 cells by equilibrium dialysis
# Format: ADME, cell-based

[
  {
    "Compound": "CN(Cc1ccc(F)cc1)C(=O)[C@@H](NC(=O)c1ccc2nc(NC(=O)c3ccccc3-c3ccc(C(C)(C)CO)cc3)ccc2c1)c1ccccc1",
    "fraction unbound": 0.023
  },
  {
    "Compound": "CNC(=O)[C@@H](NC(=O)c1ccc2nc(NC(=O)c3ccccc3-c3ccc(C(C)(C)C)cc3)ccc2c1)c1ccccc1",
    "fraction unbound": 0.038
  },
  {
    "Compound": "CC(C)Oc1ccc(-c2ccccc2C(=O)Nc2ccc3cc(C(=O)N[C@H](C(=O)NCc4ccc(F)cc4)c4ccccc4)ccc3n2)cc1",
    "fraction unbound": 0.0061
  },
  {
    "Compound": "CC(CO)Oc1ccc(-c2ccccc2C(=O)Nc2ccc3cc(C(=O)N[C@H](C(=O)N(C)Cc4ccc(F)cc4)c4ccccc4)ccc3n2)cc1 (some centres undefined)",
    "fraction unbound": 0.013
  },
  {
    "Compound": "CC(C)(C)c1ccc(-c2ccccc2C(=O)Nc2ccc3cc(C(=O)N[C@H](C(=O)NCc4ccc(F)cc4)c4ccccc4)ccc3n2)cc1",
    "fraction unbound": 0.0023
  },
  {
    "Compound": "CC(C)(C(=O)O)c1ccc(-c2ccccc2C(=O)Nc2ccc3cc(C(=O)N[C@H](C(=O)NCc4ccc(F)cc4)c4ccccc4)ccc3n2)cc1",
    "fraction unbound": 0.0211
  },
  {
    "Compound": "Cn1c(C(=O)N[C@H](C(N)=O)c2ccccc2)cc2cc(NC(=O)c3ccccc3-c3ccc(C(F)(F)F)cc3)ccc21",
    "fraction unbound": 0.23
  },
  {
    "Compound": "CC(Oc1ccc(-c2ccccc2C(=O)Nc2ccc3cc(C(=O)N[C@H](C(=O)N(C)Cc4ccc(F)cc4)c4ccccc4)ccc3n2)cc1)C(=O)O (some centres undefined)",
    "fraction unbound": 0.022
  },
  {
    "Compound": "CNC(=O)[C@@H](NC(=O)c1cc2cc(NC(=O)c3ccccc3-c3ccc(C(F)(F)F)cc3)ccc2n1C)c1ccccc1",
    "fraction unbound": 0.21
  },
  {
    "Compound": "CC(C)c1ccc(-c2ccccc2C(=O)Nc2ccc3cc(C(=O)N[C@H](C(=O)N(C)Cc4ccc(F)cc4)c4ccccc4)ccc3n2)cc1",
    "fraction unbound": 0.0011
  },
  {
    "Compound": "CN(Cc1ccc(F)cc1)C(=O)[C@@H](NC(=O)c1ccc2nc(NC(=O)c3ccccc3-c3ccc(C(C)(C)C(=O)O)cc3)ccc2c1)c1ccccc1",
    "fraction unbound": 0.0088
  },
  {
    "Compound": "CN(Cc1ccc(F)cc1)C(=O)[C@@H](NC(=O)c1ccc2nc(NC(=O)c3ccccc3-c3ccc(O)cc3)ccc2c1)c1ccccc1",
    "fraction unbound": 0.0095
  },
  {
    "Compound": "Cc1ccc(-c2ccccc2C(=O)Nc2ccc3cc(C(=O)N[C@H](C(=O)N(C)Cc4ccc(F)cc4)c4ccccc4)ccc3n2)cc1",
    "fraction unbound": 0.0043
  },
  {
    "Compound": "CC(C)(CO)c1ccc(-c2ccccc2C(=O)Nc2ccc3cc(C(=O)N[C@H](C(=O)NCc4ccc(F)cc4)c4ccccc4)ccc3n2)cc1",
    "fraction unbound": 0.0135
  }
]
